Compiled record: Ki values for Hepatocyte growth factor receptor (Homo sapiens) across several sources.
Value Kind: Ki

| Molecule | Value Kind | Value |
| --- | --- | --- |
| CN(CCC#N)C(=O)c1cccc(-c2cnc3c(-c4ccccn4)c(N)nn3c2)n1 | Ki | < 500 nM |
| C[C@@H](NC(=O)c1nc(-c2cnn(C3CCNCC3)c2)cnc1N)c1nnc2ccc(Nc3cccc(Cl)c3)nn12 | Ki | ≤ 250 nM |
| CN(C)S(=O)(=O)N1CCC(n2cc(-c3cnc(N)c(-c4nnnn4-c4cccc(Cl)c4F)c3)cn2)CC1 | Ki | ≤ 100 nM |
| COc1ccc(F)cc1-n1nnnc1-c1cc(-c2ccc(NC(C)=O)cc2)cnc1N | Ki | 100 to 1000 nM |
| NC1NN2C=C(c3cccc(CN4CC[C@@H](N)C4)c3)C=NC2=C1c1ccccn1 (some centres unmarked) | Ki | < 500 nM |
| COc1c(F)cccc1-n1nnnc1-c1cc(-c2ccc(CN(C)C)cc2)cnc1N | Ki | ≤ 100 nM |
| Nc1nn2cc(-c3ccncc3)cnc2c1-c1cc(NCC2CCCCC2)ncn1 | Ki | < 500 nM |
| Nc1nn2cc(-c3ccncc3)cnc2c1-c1cc(NC2CCCCC2)ncn1 | Ki | < 500 nM |
